- System: 3T3-L1 cells
- ASSAY_REMARKS: Cell viability assay: MTT test, non-tumour cells
- Format: cell-based, mouse
- APPLIED_CONDITIONS: 72 h treatment, 1-40 µM
- Experimental: All cell lines were obtained from the American Type Culture Collection (ATCC, Manassas, VA, USA). […] Cell viability was evaluated using a colorimetric assay which exploits the conversion, by the mitochondrial enzyme succinate dehydrogenase (SDH), of the bromide reagent of 3-(4,5-dimethylthiazol-2-il)-2,5-diphenyltetrazole (MTT) (Sigma-Aldrich, Milan, Italy) into crystals of a product called formazan (blue-coloured). […] Cell viability was evaluated with the MTT colorimetric assay as described above.
PROPERTY_LABEL: reduction in cell viability of 3T3-L1 cells (in words)

{"COMPOUND": "CC1(C)CC2(c3ccccc3)OC(=O)C=C2O1 (centres unmarked) [Compound A5]", "REPORTED": "not influenced"}
{"COMPOUND": "CC1(C)CC2(c3ccccc3)OC(=O)C([Si](C)(C)C)=C2O1 (centres unmarked) [Compound A4]", "REPORTED": "not influenced"}
{"COMPOUND": "CC12CCOC1=C([Si](C)(C)C)C(=O)O2 (centres unmarked) [Compound A3]", "REPORTED": "more substantial"}
{"COMPOUND": "CC1(C)CC2(C)OC(=O)C(c3ccccc3)=C2O1 (centres unmarked) [Compound A1]", "REPORTED": "more substantial"}
